# ASSAY INFO: Pharmacokinetic study, single oral dose
# Type: in vivo, male, Swiss Albino mice
# RUN PARAMETERS: male, Swiss Albino, mouse, plasma, po; 11.5 mg/kg p.o., single dose
# Experimental: The pharmacokinetic profile was assessed in male, Swiss Albino mice in a discrete study using a single per oral dose of Netoglitazone (11.5 mg/kg, 30 μmoles/kg) formulated as a solution in 10% NMP/90% Solutol (as a 20% v/v solution in PBS). The dosing concentration was 2.3 mg/mL with a dosing volume of 5.0 mL/kg. Data were derived from the average of 3 animals per timepoint (terminal sampling). […] Samples were analysed using UHPLC with TOF mass spectrometry using electrospray ionisation.
METRIC: Cmax (ng/mL)
Please give a number only; it is taken to be in ng/mL.

Query: Give me measured Cmax, please, for this molecule: O=C1NC(=O)C(Cc2ccc3cc(OCc4ccccc4F)ccc3c2)S1 (stereo not shown) [Netoglitazone]
Result: 14400
